Target: nitrosylation of GAPDH (SNO-GAPDH) (Mus musculus)
Sequence (P16858 whole entry): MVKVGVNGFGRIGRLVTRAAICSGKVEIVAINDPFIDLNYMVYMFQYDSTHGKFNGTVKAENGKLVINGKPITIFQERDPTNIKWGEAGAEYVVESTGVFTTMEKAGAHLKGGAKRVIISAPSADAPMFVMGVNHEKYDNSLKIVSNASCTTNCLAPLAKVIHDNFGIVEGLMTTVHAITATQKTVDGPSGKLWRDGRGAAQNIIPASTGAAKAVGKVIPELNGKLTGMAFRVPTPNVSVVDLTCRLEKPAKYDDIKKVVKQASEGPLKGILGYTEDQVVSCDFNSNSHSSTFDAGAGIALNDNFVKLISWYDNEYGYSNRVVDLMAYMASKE
Test: S-nitrosylation biotin switch assay in cocaine-treated primary cortical neurons
Format: cell-based
Settings: 16 hr, deprenyl 2 nM, FIG. 4A
measurement.kind: cocaine-induced nitrosylation of GAPDH in cortical cultures

Some entries whose results are on file:
C#CCN(C)Cc1ccccc1
do not prevent
C#CCN(C)CC1=Cc2ccccc2Oc2ccccc21 [CGP3466B]
prevents
C#CCN(C)[C@H](C)Cc1ccccc1
prevents
NCCNC(=O)c1ccc(Cl)cn1 [lazabemide]
do not prevent

**Query** What measured cocaine-induced nitrosylation of GAPDH in cortical cultures goes with C#CCN[C@@H]1CCc2ccccc21 ?
**Result** do not prevent
